Assignment: determine reported pIC50 for the given molecules.
The meaning of pIC50 here: minus log10 of the concentration in molar units.

Recorded pIC50 for COc1ccc(C(c2c(O)c3ccccc3oc2=O)c2c(O)c3ccccc3oc2=O)cc1 on Urease (Canavalia ensiformis) was 4.22

The reported Urease (Canavalia ensiformis) pIC50 of O=c1oc2ccccc2c(O)c1C(c1c(O)c2ccccc2oc1=O)c1c[nH]c2ccccc12 is 4.21

Fill in: Urease (Canavalia ensiformis) pIC50 for O=c1oc2ccccc2c(O)c1Cc1c(O)c2ccccc2oc1=O = 4.82

Value sought: pIC50, system Urease (Canavalia ensiformis), item O=c1oc2ccccc2c(O)c1C(c1ccncc1)c1c(O)c2ccccc2oc1=O . Result: 4.23

The recorded pIC50 with Urease (Canavalia ensiformis) for O=c1oc2ccccc2c(O)c1C(CCc1ccccc1)c1c(O)c2ccccc2oc1=O was 4.17

The recorded pIC50 with Urease (Canavalia ensiformis) for CC(c1c(O)c2ccccc2oc1=O)c1c(O)c2ccccc2oc1=O was 4.20

Per the reported Urease (Canavalia ensiformis) data, COc1cccc(C(c2c(O)c3ccccc3oc2=O)c2c(O)c3ccccc3oc2=O)c1 has pIC50 of 4.25

Tested on Urease (Canavalia ensiformis): CCCCC(c1c(O)c2ccccc2oc1=O)c1c(O)c2ccccc2oc1=O . Observed pIC50: 4.19

// assay Urease (Canavalia ensiformis), entry COc1ccccc1C(c1c(O)c2ccccc2oc1=O)c1c(O)c2ccccc2oc1=O , pIC50 value = 4.08

Fill in: Urease (Canavalia ensiformis) pIC50 for O=c1oc2ccccc2c(O)c1C(c1ccccc1Br)c1c(O)c2ccccc2oc1=O = 4.13

Tested on Urease (Canavalia ensiformis): O=c1oc2ccccc2c(O)c1C(/C=C/c1ccccc1)c1c(O)c2ccccc2oc1=O . Observed pIC50: 4.22

Considering O=c1c(C(c2ccc([N+](=O)[O-])cc2)c2c(O)oc3ccccc3c2=O)c(O)oc2ccccc12 , its pIC50 with Urease (Canavalia ensiformis) was recorded as 4.15

Item: O=c1oc2ccccc2c(O)c1C(c1ccccc1Cl)c1c(O)c2ccccc2oc1=O | System: Urease (Canavalia ensiformis) | pIC50: 4.07

# COc1cc(C(c2c(O)oc3ccccc3c2=O)c2c(O)oc3ccccc3c2=O)cc(OC)c1OC with Urease (Canavalia ensiformis): pIC50 is 4.08

Record CC(c1ccccc1)C(c1c(O)c2ccccc2oc1=O)c1c(O)c2ccccc2oc1=O (stereo not given) has Urease (Canavalia ensiformis) pIC50 equal to 4.28
